// IC50 lookup, one value per entry
target: ERO1α (Homo sapiens, UniProt Q96HE7); experiment: ERO1α activity assay; type: biochemical; conditions: read-out: IC50, ERO1α activity
experimentalEndpoint: IC50

1. O=C(CSc1nc(O)cc(O)n1)N1c2ccccc2Sc2ccccc21 [B12-5] ... 7.9 µM
2. O=C(CSc1nc(O)c2nc[nH]c2n1)N1c2ccccc2Sc2ccccc21 [B12] ... 12.4 µM

----------
Assay: H2O2 (antioxidant) activity assay
Type: biochemical
Settings: 100 μM
Text: FIG. 17(A-F) is an exemplary embodiment of identification of novel ERO1α inhibitors by high throughput screening in accordance with the present disclosure. FIG. 17A: A scheme of an ERO1α activity assay. FIG. 17B: Screening of chemical libraries in the ERO1α activity assay. FIG. 17C: The inhibitory effect of selected compounds on ERO1α activity. FIG. 17D: The inhibitory effect of selected compounds on PDI activity. FIG. 17E: The inhibitory effect of selected compounds on H2O2 activity. […]
// H2O2 inhibition at 100 μM (%) lookup, one value per entry
experimentalEndpoint: H2O2 inhibition at 100 μM (%)

1) COc1cc(O)nc(SCC(=O)N2c3ccccc3Sc3ccccc32)n1 ... 0.2
2) O=C(COc1nc2ccccc2s1)N1c2ccccc2Sc2ccccc21 ... 4.9
3) Cc1cc(O)nc(SCC(=O)N2c3ccccc3Sc3ccccc32)n1 ... 2.3
4) Cc1nc2ccccc2nc1SCC(=O)N1c2ccccc2Sc2ccccc21 ... 2.3

----------
// ERO1α inhibition at 20 μM (%) lookup, one value per entry
target: ERO1α (Homo sapiens, UniProt Q96HE7); test: ERO1α activity assay; format: biochemical; details: 20 μM
experimentalEndpoint: ERO1α inhibition at 20 μM (%)

1. Cc1cc(O)nc(SCC(=O)N2c3ccccc3Sc3ccccc32)n1 ... 82.3
2. Cc1nc2ccccc2nc1SCC(=O)N1c2ccccc2Sc2ccccc21 ... 82.3
3. O=C(COc1nc2ccccc2s1)n1c2ccccc2c2ccccc21 ... 48.6
4. O=C(COc1ccccc1)N1c2ccccc2Sc2ccccc21 ... 57.0
5. COc1ccc2nc(SCC(=O)n3c4ccccc4c4ccccc43)nc(C)c2c1 ... 53.7
6. CCCn1c(SCC(=O)N2c3ccccc3Sc3ccccc32)nc2ccccc21 ... 75.5
7. O=C(COc1nc2ccccc2s1)N1c2ccccc2Sc2ccccc21 ... 60.5

----------
Target: ERO1α (Homo sapiens, UniProt Q96HE7)
Sequence (Q96HE7 24-468): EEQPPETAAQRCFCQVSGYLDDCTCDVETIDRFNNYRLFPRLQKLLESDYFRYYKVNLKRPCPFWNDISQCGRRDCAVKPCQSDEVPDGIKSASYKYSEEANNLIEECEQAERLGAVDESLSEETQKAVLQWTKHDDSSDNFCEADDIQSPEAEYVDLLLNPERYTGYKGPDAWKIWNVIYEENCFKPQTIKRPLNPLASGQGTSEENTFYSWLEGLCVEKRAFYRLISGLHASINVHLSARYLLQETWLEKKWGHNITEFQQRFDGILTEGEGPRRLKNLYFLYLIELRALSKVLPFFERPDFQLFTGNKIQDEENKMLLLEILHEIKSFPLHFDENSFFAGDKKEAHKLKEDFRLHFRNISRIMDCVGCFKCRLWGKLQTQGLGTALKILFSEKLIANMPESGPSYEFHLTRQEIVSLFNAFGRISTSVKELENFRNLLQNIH
pKd: −log10 of the molar value.
experimentalEndpoint: pKd

1) O=C(CSc1nc(O)cc(O)n1)N1c2ccccc2Sc2ccccc21 ... 4.89
